Values were extracted from patent US10703751B2.

# test-system: UniProt:P23458
# Sequence (P23458 850-1154): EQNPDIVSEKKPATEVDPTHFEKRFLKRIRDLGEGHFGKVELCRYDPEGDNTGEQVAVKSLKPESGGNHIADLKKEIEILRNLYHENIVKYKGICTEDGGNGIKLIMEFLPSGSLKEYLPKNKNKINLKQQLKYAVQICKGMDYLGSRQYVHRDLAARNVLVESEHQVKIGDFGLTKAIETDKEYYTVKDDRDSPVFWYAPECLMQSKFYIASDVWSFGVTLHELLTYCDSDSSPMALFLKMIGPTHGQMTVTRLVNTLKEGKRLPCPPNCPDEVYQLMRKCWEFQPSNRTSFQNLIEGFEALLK
# test-description: JAK1 kinase assay (HTRF)
# Assay type: biochemical
# experimental-setup: ratio of the respective EC50
measurement-label: JAK2/JAK1 ratio
Give bare numbers.

The cases that follow already have their JAK2/JAK1 ratio on record.
molecule: CNc1cc2c(cn1)nc([C@@H](C)O)n2[C@H]1CC[C@@H](CC#N)CC1 [Example 7]
measurement-label: JAK2/JAK1 ratio
value-reported: 7.6
--
molecule: C[C@@H](O)c1nc2cnc3[nH]ccc3c2n1[C@H]1CC[C@H](C#N)CC1 [Example 641 of WO2011086053]
measurement-label: JAK2/JAK1 ratio
value-reported: 33
--
molecule: CNc1cc2c(cn1)nc(C(C)O)n2[C@H]1CC[C@H](CC#N)CC1 (stereo partly shown) [Example 1]
measurement-label: JAK2/JAK1 ratio
value-reported: 49

Now look at this one.
Prompt line: Record request: JAK2/JAK1 ratio value, item CNc1cc2c(cn1)nc([C@H](C)O)n2[C@H]1CC[C@H](CC#N)CC1 [Example 2]
Response line: 25
